Hey, just so you know, these numbers are from patent US7396844B1.

- assaySystem: activated human blood coagulation factor X (Homo sapiens, UniProt P00742)
- Construct: purchased Enzyme Research Co
- Sequence (P00742 235-488 limits assumed): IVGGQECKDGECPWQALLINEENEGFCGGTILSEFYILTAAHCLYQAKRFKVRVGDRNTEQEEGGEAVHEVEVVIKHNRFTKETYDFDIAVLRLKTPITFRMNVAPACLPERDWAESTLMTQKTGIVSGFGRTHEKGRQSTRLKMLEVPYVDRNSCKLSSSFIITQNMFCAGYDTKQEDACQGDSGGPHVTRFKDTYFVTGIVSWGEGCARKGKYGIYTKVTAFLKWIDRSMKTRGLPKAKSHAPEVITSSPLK
- Sequence (P00742 41-179 partner limits assumed): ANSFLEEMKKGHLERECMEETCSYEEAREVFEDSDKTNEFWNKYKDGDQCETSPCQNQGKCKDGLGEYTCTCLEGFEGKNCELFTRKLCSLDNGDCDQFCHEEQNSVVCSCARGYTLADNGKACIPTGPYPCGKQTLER
- assayProcedure: Determination of activity of inhibiting the activated blood coagulation factor X
- Assay type: biochemical
- conditionDetails: Table 2; same manner as Example 93; read-out: Activity of inhibiting activated blood coagulation factor X (pIC50) (converted)
Below, each entry is listed alongside its reported IC50.
readout: IC50 (nM)

>>> resultnumber("N=C(N)c1ccc(C(=O)N[C@@H](COc2cccc(C(=N)N)c2)Cc2ccccc2)cc1.O=C(O)C(F)(F)F.O=C(O)C(F)(F)F [Compound of Ex. 117, bistrifluoroacetate]")
39.8
>>> resultnumber("CC(=N)N1CCC(Oc2ccc(C[C@@H](CCc3cccc(C(=N)N)c3)NS(=O)(=O)c3ccccc3)cc2)CC1.O=C(O)C(F)(F)F.O=C(O)C(F)(F)F [Compound of Ex. 175, bistrifluoroacetate]")
251
>>> resultnumber("N=C(N)c1ccc(C(=O)N(CCOc2cccc(C(=N)N)c2)Cc2ccccc2)cc1 [Compound of Ex. 114, bistrifluoroacetate]")
50.1
>>> resultnumber("N=C(N)c1ccc(C(=O)NCCCc2cccc(C(=N)N)c2)cc1.O=C(O)C(F)(F)F.O=C(O)C(F)(F)F [Compound of Ex. 144, bistrifluoroacetate]")
1580
>>> resultnumber("N=C(N)c1ccc(C(=O)NCCOc2cccc(C(=N)N)c2)cc1.O=C(O)C(F)(F)F.O=C(O)C(F)(F)F [Compound of Ex. 95, bistrifluoroacetate]")
316
